Source listed as ChEMBL document CHEMBL1155077.

assay: Volume of distribution at steady state in dog at 0.4 mg/kg, iv; format: ADME, organism-based, Canis lupus familiaris; design: dose 0.4 mg/kg, route intravenous; details: in vivo, read-out: Vdss
Parameter: Vd (L/kg)
Your answer should be a plain number; it is taken to be in L/kg.

query: Provide measured Vd value, entry: "CN1CC[C@H](N(C)C(=O)N2CC(c3cc(F)ccc3F)=C[C@@]2(CO)c2ccccc2)[C@H](F)C1"
result: 1.6

----------
biological target: Kinesin heavy chain isoform 5A (Homo sapiens, UniProt Q12840); assay: Inhibition of cloned human nKHC
Sequence (Q12840 whole entry, canonical isoform): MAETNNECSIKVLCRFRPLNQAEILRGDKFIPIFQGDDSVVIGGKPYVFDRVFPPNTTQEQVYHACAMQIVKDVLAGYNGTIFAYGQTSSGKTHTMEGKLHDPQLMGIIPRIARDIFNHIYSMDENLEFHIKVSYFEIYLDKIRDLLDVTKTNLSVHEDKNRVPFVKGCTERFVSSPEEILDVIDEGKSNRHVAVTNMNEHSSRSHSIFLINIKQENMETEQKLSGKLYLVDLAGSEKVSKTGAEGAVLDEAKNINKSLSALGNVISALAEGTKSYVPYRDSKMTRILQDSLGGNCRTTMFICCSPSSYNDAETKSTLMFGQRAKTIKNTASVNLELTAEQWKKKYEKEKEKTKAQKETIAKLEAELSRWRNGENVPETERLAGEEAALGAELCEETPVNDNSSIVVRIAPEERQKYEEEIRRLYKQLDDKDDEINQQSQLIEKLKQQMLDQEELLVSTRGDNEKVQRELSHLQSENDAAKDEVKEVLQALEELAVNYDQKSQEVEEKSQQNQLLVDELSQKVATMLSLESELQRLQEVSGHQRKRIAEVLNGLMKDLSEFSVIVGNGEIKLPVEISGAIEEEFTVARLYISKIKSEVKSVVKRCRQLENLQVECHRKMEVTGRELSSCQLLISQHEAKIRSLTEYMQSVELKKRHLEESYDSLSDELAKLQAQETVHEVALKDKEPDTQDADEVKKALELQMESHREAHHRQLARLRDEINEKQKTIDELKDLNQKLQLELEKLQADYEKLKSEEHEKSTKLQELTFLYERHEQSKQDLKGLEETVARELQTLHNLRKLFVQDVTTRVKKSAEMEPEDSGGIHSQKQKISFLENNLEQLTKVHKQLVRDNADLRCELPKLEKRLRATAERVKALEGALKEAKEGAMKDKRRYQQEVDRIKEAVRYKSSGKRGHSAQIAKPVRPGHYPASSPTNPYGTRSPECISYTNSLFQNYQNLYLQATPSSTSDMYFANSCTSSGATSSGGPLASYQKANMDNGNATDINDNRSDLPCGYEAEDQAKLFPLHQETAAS
Parameter: IC50

query: Read off the recorded IC50 for "CN1CC[C@H](N(C)C(=O)N2CC(c3cc(F)ccc3F)=C[C@@]2(CO)c2ccccc2)[C@H](F)C1"
result: > 50 µM
